TARGET SYSTEM: UniProtKB P08170
Sequence (P08170 1-839): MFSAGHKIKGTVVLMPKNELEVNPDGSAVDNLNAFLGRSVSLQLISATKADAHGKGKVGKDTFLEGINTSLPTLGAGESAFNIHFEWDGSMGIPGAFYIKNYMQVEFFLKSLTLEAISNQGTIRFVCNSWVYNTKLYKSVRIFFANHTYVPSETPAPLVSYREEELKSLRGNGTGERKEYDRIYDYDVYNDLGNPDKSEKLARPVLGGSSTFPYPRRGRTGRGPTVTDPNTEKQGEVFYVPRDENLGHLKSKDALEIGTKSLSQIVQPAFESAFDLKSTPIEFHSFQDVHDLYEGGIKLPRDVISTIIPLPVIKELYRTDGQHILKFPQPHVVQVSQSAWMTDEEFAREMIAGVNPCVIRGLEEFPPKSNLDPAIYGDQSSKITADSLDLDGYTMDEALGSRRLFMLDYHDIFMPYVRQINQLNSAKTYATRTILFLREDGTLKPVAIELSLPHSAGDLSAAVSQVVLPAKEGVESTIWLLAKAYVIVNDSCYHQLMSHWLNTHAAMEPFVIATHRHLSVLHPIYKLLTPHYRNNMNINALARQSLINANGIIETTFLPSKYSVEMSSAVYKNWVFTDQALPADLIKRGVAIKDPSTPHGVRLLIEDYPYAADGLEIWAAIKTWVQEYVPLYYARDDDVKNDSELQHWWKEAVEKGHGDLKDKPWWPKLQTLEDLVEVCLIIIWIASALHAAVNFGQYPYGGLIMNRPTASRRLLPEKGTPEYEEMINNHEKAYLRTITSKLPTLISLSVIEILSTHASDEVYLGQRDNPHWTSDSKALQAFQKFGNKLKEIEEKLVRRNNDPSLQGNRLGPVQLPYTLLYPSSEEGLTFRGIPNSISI
READOUT: IC50 (µM)
Numbers only, in µM.

Exercise: Return reported IC50; argument: CC(C)(C)/[N+]([O-])=C/c1ccc2cccc(O)c2n1 [QN5]
Key: 5
